Test: qHTS assay to identify small molecule agonists of the endoplasmic reticulum stress response signaling pathway - cell viability counter screen (AID 1159517); further: nearly all actives have a fitted effect of over 50% in size
Settings: ESRE-bla HeLa viability, CellTiter-Glo luminescence, 5 h; series mostly up to 61 µM
Results filed as inconclusive are left out. Calls of active or inactive are those of the source. The call rests on the fitted dose curve.
Classes used: t = active, f = inactive

[
  {
    "molecule": "Cc1cccc(S(=O)(=O)O)c1C",
    "label": "f"
  },
  {
    "molecule": "CC(C)(C)CC(C)(C)c1ccc(OCCOCC[N+](C)(C)Cc2ccccc2)cc1",
    "label": "t"
  },
  {
    "molecule": "Cc1cccc(N(C)C(=S)Oc2ccc3c(c2)C2CCC3C2)c1 (centres undefined)",
    "label": "f"
  },
  {
    "molecule": "CCCCCCCCOC(=O)c1ccc(O)cc1",
    "label": "t"
  },
  {
    "molecule": "O=C1CCCCCN1SSN1CCCCCC1=O",
    "label": "f"
  },
  {
    "molecule": "CCc1cc(Cc2cc(CC)cc(C(C)(C)C)c2O)c(O)c(C(C)(C)C)c1",
    "label": "t"
  },
  {
    "molecule": "Cc1cc(O)c(Cl)c(C)c1Cl",
    "label": "t"
  },
  {
    "molecule": "NC(=O)CC[C@@H]1NC(=O)[C@H](Cc2ccccc2)NC(=O)[C@H](Cc2ccc(O)cc2)NC(=O)CCSSC[C@@H](C(=O)N2CCC[C@H]2C(=O)N[C@@H](CCCN=C(N)N)C(=O)NCC(N)=O)NC(=O)[C@H](CC(N)=O)NC1=O",
    "label": "f"
  },
  {
    "molecule": "O=C(c1ccc(F)cc1)C1CCN(CCn2c(=O)[nH]c3ccccc3c2=O)CC1",
    "label": "f"
  },
  {
    "molecule": "COC(=O)C1=C(C)NC(C)=C(C(=O)OCCc2ccc(N3CCN(C(c4ccccc4)c4ccccc4)CC3)cc2)C1c1cccc([N+](=O)[O-])c1 (centres undefined)",
    "label": "f"
  },
  {
    "molecule": "CCCCN1CCCC[C@H]1C(=O)Nc1c(C)cccc1C",
    "label": "f"
  },
  {
    "molecule": "Nc1c2ccccc2nc2ccccc12",
    "label": "f"
  },
  {
    "molecule": "COc1ccc(-c2ccc3cc(C(=O)O)ccc3c2)cc1C12CC3CC(CC(C3)C1)C2",
    "label": "t"
  },
  {
    "molecule": "Cn1cc(C(=O)[C@@H]2CCc3nc[nH]c3C2)c2ccccc21",
    "label": "f"
  },
  {
    "molecule": "OCCN(CCO)c1nc(N2CCCCC2)c2nc(N(CCO)CCO)nc(N3CCCCC3)c2n1",
    "label": "f"
  },
  {
    "molecule": "Cc1ccc(O)c(C(C)(C)C)c1",
    "label": "f"
  },
  {
    "molecule": "N#CC1(c2ccc(F)cc2)CCC(=O)CC1",
    "label": "f"
  },
  {
    "molecule": "O=C1CCCc2c1cc1ccc3cccc4ccc2c1c34",
    "label": "f"
  },
  {
    "molecule": "CCCC/C=C/CCCCO",
    "label": "f"
  }
]
